- ASSAY SYSTEM: T1, MERS-CoV [change] (MERS-CoV, UniProt K9N5Q8 18-725)
- T1 sequence: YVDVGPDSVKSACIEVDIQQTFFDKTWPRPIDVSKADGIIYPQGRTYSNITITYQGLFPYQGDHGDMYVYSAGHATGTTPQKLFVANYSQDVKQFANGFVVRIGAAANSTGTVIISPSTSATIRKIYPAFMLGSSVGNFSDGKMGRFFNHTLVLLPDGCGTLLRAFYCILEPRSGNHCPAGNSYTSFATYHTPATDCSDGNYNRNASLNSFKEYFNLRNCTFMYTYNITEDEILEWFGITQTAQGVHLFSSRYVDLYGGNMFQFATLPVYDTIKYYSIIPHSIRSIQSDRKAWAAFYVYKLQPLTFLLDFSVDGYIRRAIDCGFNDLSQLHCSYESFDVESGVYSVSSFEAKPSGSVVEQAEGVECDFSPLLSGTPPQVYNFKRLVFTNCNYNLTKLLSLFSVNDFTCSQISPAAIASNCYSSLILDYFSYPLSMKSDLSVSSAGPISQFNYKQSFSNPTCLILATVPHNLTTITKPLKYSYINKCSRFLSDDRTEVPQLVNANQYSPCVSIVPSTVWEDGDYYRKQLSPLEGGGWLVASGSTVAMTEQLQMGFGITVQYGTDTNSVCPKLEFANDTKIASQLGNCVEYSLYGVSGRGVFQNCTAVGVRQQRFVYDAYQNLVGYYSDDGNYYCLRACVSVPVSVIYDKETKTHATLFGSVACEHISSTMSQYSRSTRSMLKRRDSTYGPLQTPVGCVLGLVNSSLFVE
- ASSAY DETAILS: Octet BLI, IgG, monovalent

BINDER	binding result
A-8 (antibody, V domains shown) VH: EVQLLESGGGLVQPGGSLRLSCAASGFTFSSYAMSWVRQAPGKGLEWVSAISGSGNSTSYADSVKGRFTLSRDNSKNTLYLQMNSLRAEDTAIYYCAKGLGTRSFNWGAFDYWGQGTLVTVSS VL: DIRVTQSPSSLSASVGDRVTITCRASQGISYSLAWYQQKPGKAPKLLLYAASNLESGVPSRFSGSGSGTDYTLTVSSLQPEDFATYYCQQYYSTPWTFGQGTKVEIK	no binding
A-5 (antibody, V domains shown) VH: QVQLVESGGGLIQPGESLRLSCAASEFIVSRNYMSWVRQAPGKGLEWVSVIYSGGNTYYADSVKGRFTISRDNSKNTLYLQMNSLRAEDTAVYYCARDLRGPGCFDFWGQGTTVTVSS VL: DIQVTQSPSSLSASVGDRVTITCQASQDISNFLNWYQQKPGKAPKLLIYDASNLETGVPSRFSASGSGTEFTFTISSLQPEDIATYYCQQYDNLRVTFGGGTKLEIK	no binding
A-16 (antibody, V domains shown) VH: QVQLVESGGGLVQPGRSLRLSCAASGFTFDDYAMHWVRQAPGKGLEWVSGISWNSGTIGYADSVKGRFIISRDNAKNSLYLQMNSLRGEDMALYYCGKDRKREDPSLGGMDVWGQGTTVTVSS VL: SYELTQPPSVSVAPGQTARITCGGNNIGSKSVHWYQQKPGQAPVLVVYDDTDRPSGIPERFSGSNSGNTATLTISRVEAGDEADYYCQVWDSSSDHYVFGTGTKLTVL	no binding
